Hey, just so you know, these numbers are from patent US12448394B2.

- MEASUREMENT_TARGET: MET kinase (Homo sapiens, UniProt P08581)
- Construct: purchased SignalChem
- Sequence (P08581 25-1390): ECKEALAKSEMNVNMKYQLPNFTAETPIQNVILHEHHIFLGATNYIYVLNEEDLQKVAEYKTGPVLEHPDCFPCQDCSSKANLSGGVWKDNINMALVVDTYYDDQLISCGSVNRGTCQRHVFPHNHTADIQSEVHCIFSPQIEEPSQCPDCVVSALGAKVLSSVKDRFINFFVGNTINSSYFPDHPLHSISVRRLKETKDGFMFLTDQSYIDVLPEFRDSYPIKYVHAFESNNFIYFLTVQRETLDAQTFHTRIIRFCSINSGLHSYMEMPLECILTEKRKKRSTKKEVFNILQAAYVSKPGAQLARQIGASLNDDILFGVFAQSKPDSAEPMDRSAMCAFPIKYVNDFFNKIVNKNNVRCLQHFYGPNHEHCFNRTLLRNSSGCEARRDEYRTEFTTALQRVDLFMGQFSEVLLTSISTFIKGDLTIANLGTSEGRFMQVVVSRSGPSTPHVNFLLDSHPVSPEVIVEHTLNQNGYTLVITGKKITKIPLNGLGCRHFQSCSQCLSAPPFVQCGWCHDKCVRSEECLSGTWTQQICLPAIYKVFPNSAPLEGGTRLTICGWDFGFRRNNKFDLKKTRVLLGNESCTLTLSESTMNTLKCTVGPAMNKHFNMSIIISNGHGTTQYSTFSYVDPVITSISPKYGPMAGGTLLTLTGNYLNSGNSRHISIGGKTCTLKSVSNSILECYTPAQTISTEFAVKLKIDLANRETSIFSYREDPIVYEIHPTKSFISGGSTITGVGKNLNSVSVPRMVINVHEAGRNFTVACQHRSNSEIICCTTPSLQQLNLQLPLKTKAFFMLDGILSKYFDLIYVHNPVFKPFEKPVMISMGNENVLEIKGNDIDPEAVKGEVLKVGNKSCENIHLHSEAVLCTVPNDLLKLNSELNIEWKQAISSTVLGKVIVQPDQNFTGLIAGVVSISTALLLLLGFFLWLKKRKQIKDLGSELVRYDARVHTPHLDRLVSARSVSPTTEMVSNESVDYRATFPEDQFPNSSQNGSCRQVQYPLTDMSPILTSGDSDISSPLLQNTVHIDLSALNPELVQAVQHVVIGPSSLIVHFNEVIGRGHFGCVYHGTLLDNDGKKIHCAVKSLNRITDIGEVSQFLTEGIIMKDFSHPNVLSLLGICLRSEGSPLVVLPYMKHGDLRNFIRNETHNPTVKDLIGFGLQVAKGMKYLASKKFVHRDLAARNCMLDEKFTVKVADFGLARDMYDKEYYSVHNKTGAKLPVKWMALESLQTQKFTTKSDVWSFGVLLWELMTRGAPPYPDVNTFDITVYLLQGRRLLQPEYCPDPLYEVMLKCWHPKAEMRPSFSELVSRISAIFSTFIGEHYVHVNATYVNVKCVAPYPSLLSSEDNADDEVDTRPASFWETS
- ASSAY: MET kinase assay (AlphaScreen, counter screen)
- Format: biochemical
- ASSAY_CONDITIONS: read-out: Ranking of IC50 values, MET
pIC50: −log10 of the molar value.
pIC50 values by entry

Please review the following examples before continuing.
{"SMI": "Cn1ncc2ccc(-c3n[nH]c4c3Cc3sc(-c5csc(CN6CCOCC6)c5)cc3-4)cc21", "MEASUREMENT_TYPE": "pIC50", "RESULT": "< 6.00"}
{"SMI": "Cn1ncc2ccc(-c3n[nH]c4c3Cc3sc(C5CCNCC5)cc3-4)cc21", "MEASUREMENT_TYPE": "pIC50", "RESULT": "< 6.00"}
{"SMI": "Cn1ncc2ccc(-c3n[nH]c4c3Cc3sc(-c5ccc(CN6CCC6)cc5)cc3-4)cc21", "MEASUREMENT_TYPE": "pIC50", "RESULT": "6.00 to 6.52"}

Consider the additional molecule presented here.
Query (molecule): CN(C)Cc1ccc(-c2cc3c(s2)Cc2c(-c4ccc5cnn(C)c5c4)n[nH]c2-3)cc1 ; field requested: pIC50 6.00 to 6.52

----------
- Test system: A375 melanoma cell with BRAF V600E mutation
- ASSAY: A375 cell proliferation assay (counter screen)
- Assay type: cell-based, human
- ASSAY_CONDITIONS: Homo sapiens, A-375, A375 cells, 72 hours treatment, CellTiter96, read-out: anti-proliferation activity A375 BRAF V600E, IC50 ranking
MEASUREMENT_TYPE: IC50

A selection of reference data follows.
{"SMI": "C[C@H]1COCCN1Cc1ccc(-c2cc3c(s2)Cc2c(-c4ccc5cnn(C)c5c4)n[nH]c2-3)cc1", "RESULT": "> 10 µM"}
{"SMI": "COc1ccc(-c2cc3c(s2)Cc2c(-c4ccc5[nH]ncc5c4)n[nH]c2-3)cn1", "RESULT": "> 10 µM"}

Requested field: IC50. Item: Cn1ncc2ccc(-c3n[nH]c4c3Cc3sc(-c5ccc(C=C6CCOCC6)cc5)cc3-4)cc21 > 10 µM

----------
- Test system: phosphorylation of FLT3 and its down-stream effector STAT5
- ASSAY: Western blotting of p-FLT3 and p-STAT5 in MV4-11 cells
- Format: cell-based
- ASSAY_CONDITIONS: Homo sapiens; at 30 nM treatment, 3 hours, FLT3-ITD positive MV4-11 leukemia cells; read-out: inhibition activity against phosphorylation of FLT3 and its down-stream effector STAT5
MEASUREMENT_TYPE: inhibition at 0.03 µM

{"COMPOUND": "Cn1ncc2ccc(-c3n[nH]c4c3Cc3sc(-c5ccc(OCCN6CCOCC6)cc5)cc3-4)cc21 [Compound 69]", "inhibition at 0.03 µM": "> 50%"}
{"COMPOUND": "CCC(c1ccc(-c2cc3c(s2)Cc2c(-c4ccc5cnn(C)c5c4)n[nH]c2-3)cc1)N1CCOCC1 (stereo not shown) [Compound 28]", "inhibition at 0.03 µM": "> 50%"}
{"COMPOUND": "Cn1ncc2ccc(-c3n[nH]c4c3Cc3sc(-c5ccc(CN6CCOCC6)c(F)c5)cc3-4)cc21 [Compound 25]", "inhibition at 0.03 µM": "> 50%"}
{"COMPOUND": "CN(C)S(=O)(=O)c1ccc(-c2cc3c(s2)Cc2c(-c4ccc5cnn(C)c5c4)n[nH]c2-3)cc1 [Compound 50]", "inhibition at 0.03 µM": "> 50%"}
{"COMPOUND": "C[C@H]1COCCN1Cc1ccc(-c2cc3c(s2)Cc2c(-c4ccc5cnn(C)c5c4)n[nH]c2-3)cc1 [Compound 75]", "inhibition at 0.03 µM": "> 50%"}
{"COMPOUND": "Cn1ncc2ccc(-c3n[nH]c4c3Cc3sc(-c5ccc(CCN6CCOCC6)cc5)cc3-4)cc21 [Compound 22]", "inhibition at 0.03 µM": "> 50%"}

# input compound: Cn1ncc2ccc(-c3n[nH]c4c3Cc3sc(-c5ccc(CN6CCOCC6=O)cc5)cc3-4)cc21 [Compound 59] ; wanted: its inhibition at 0.03 µM > 50%

----------
pIC50: −log10 of the molar value.
pIC50 data for PDGFRα kinase (Homo sapiens, UniProt P16234) follow.

Known pIC50 results, listed for orientation:
{"SMI": "Cn1ncc2ccc(-c3n[nH]c4c3Cc3sc(-c5ccc(CN6CCOCC6)cc5F)cc3-4)cc21", "pIC50": "7.52 to 8.00"}
{"SMI": "Cn1ncc2ccc(-c3n[nH]c4c3Cc3sc(C5CCN(C(=O)CN6CCOCC6)CC5)cc3-4)cc21", "pIC50": "8.00 to 9.00"}
{"SMI": "C[C@@H]1CN(Cc2ccc(-c3cc4c(s3)Cc3c(-c5ccc6cn[nH]c6c5)n[nH]c3-4)cn2)C[C@H](C)O1", "pIC50": "8.00 to 9.00"}

What is its pIC50 for PDGFRα kinase (Homo sapiens, UniProt P16234)? Entry: Cn1ncc2ccc(-c3n[nH]c4c3Cc3sc(-c5ccc(CC6CCOCC6)cc5)cc3-4)cc21 7.00 to 7.52

----------
- MEASUREMENT_TARGET: FLT3 kinase (Homo sapiens, UniProt P36888)
- Construct: purchased SignalChem
- ASSAY: FLT3 kinase assay (AlphaScreen)
- Type: biochemical
- ASSAY_CONDITIONS: read-out: Ranking of IC50 values, FLT3
pIC50: −log10 of the molar value.
Below is a list of entries, each paired with its recorded pIC50 value.

Report pIC50 for Cc1cc(-c2cc3c(s2)Cc2c(-c4ccc5cnn(C)c5c4)n[nH]c2-3)ccc1CN1CCOCC1 please. 8.00 to 9.00

Consider the compound shown here: CN1CCN(Cc2ccc(-c3cc4c(s3)Cc3c(-c5ccc6cnn(C)c6c5)n[nH]c3-4)cc2)CC1 What is its recorded pIC50? > 9.00

Data request, read-out pIC50, for Cn1ncc2ccc(-c3n[nH]c4c3Cc3sc(-c5csc(C(=O)N6CCOCC6)c5)cc3-4)cc21 > 9.00

Fill blank: measured pIC50 of the compound Cn1ncc2ccc(-c3n[nH]c4c3Cc3sc(-c5ccc(CN6CCOCC6)cc5F)cc3-4)cc21 is ____. > 9.00

Given COc1cc(-c2cc3c(s2)Cc2c(-c4ccc5cnn(C)c5c4)n[nH]c2-3)ccc1CN1CCOCC1 , state its recorded pIC50. > 9.00

pIC50 lookup needed for Cn1ncc2ccc(-c3n[nH]c4c3Cc3sc(-c5ccc(CN6CCCC6=O)cc5)cc3-4)cc21 , thanks. 8.00 to 9.00

Would you kindly share the measured pIC50 for Cn1ncc2ccc(-c3n[nH]c4c3Cc3sc(-c5ccc(CN6CCSCC6)cc5)cc3-4)cc21 ? 8.00 to 9.00

----------
- MEASUREMENT_TARGET: FLT3 kinase (Homo sapiens)
- Construct: purchased SignalChem
- ASSAY: FLT3 kinase assay (AlphaScreen)
- Format: biochemical
- ASSAY_CONDITIONS: read-out: Ranking of IC50 values, FLT3
- Description: Inhibition of FLT3 kinase activity by a test compound disclosed herein was estimated by AlphaScreen (PerkinElmer, Akron, Ohio, USA). […] Analysis of resulting product using an AlphaScreen kit and counted with Enspire Alpha (PerkinElmer, Waltham, MA, USA). […] The IC50 values of inhibitors were determined after carrying out assays with each compound at serially diluted concentrations in duplication. The results were analyzed using linear regression software (GraphPad Prism 5; GraphPad Software Inc.)
pIC50: −log10 of the molar value.
The molecules listed here are annotated with their pIC50.

Observe how each entry below is paired with its result.
{"MOLECULE": "Cn1ncc2ccc(-c3n[nH]c4c3Cc3sc(-c5ccc(CN6CCOCC6)c(C(F)(F)F)c5)cc3-4)cc21", "MEASUREMENT_TARGET": "FLT3 kinase (Homo sapiens)", "pIC50": "8.00 to 9.00"}
{"MOLECULE": "CCC(c1ccc(-c2cc3c(s2)Cc2c(-c4ccc5cnn(C)c5c4)n[nH]c2-3)cc1)N1CCOCC1 (stereo not shown)", "MEASUREMENT_TARGET": "FLT3 kinase (Homo sapiens)", "pIC50": "8.00 to 9.00"}
{"MOLECULE": "Cn1ncc2ccc(-c3n[nH]c4c3Cc3sc(-c5ccc(CN6CCCC6)cc5)cc3-4)cc21", "MEASUREMENT_TARGET": "FLT3 kinase (Homo sapiens)", "pIC50": "> 9.00"}

Consider the record given below.
I would be grateful if you could share the reported pIC50 for Cn1ncc2ccc(-c3n[nH]c4c3Cc3sc(-c5ccc(CCN6CCOCC6)cc5)cc3-4)cc21 . > 9.00

----------
- MEASUREMENT_TARGET: FLT3 kinase (Homo sapiens)
- Construct: purchased SignalChem
- Sequence (P36888 27-993): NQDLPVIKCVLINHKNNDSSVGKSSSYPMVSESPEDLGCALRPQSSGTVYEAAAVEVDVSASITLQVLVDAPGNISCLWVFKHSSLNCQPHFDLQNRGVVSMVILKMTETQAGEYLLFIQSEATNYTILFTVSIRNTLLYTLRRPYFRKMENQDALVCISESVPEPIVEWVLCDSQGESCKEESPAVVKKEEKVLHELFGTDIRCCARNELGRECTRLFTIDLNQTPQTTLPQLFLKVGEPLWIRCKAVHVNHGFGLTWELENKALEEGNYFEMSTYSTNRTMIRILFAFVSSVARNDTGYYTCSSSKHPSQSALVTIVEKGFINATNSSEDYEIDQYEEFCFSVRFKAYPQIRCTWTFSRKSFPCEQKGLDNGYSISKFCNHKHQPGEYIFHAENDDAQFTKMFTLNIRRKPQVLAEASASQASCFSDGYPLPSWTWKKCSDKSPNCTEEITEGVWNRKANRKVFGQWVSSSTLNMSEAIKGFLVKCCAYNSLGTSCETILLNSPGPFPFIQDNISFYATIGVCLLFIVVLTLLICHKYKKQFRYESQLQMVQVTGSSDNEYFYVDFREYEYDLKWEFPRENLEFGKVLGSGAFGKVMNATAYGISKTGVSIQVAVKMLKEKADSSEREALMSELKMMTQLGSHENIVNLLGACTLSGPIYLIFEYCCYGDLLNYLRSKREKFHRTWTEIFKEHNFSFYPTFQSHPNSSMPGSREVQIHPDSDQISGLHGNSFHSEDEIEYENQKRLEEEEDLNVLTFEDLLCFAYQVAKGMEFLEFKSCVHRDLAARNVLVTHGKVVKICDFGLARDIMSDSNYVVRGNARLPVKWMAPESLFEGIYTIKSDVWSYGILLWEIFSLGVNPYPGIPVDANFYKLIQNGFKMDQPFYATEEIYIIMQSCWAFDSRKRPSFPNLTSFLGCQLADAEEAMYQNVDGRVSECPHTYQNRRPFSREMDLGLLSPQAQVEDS
- ASSAY: FLT3 kinase assay (AlphaScreen)
- Assay type: biochemical
- ASSAY_CONDITIONS: read-out: Ranking of IC50 values, FLT3
pIC50: −log10 of the molar value.
MEASUREMENT_TYPE: pIC50

Solved cases below.
{"SMI": "C[C@@H]1COCCN1Cc1ccc(-c2cc3c(s2)Cc2c(-c4ccc5cnn(C)c5c4)n[nH]c2-3)cc1", "pIC50": "> 9.00"}
{"SMI": "C[C@H]1COCCN1Cc1ccc(-c2cc3c(s2)Cc2c(-c4ccc5cnn(C)c5c4)n[nH]c2-3)cc1", "pIC50": "> 9.00"}
{"SMI": "Cn1ncc2ccc(-c3n[nH]c4c3Cc3sc(-c5ccc(CN6CCOCC6)nc5)cc3-4)cc21", "pIC50": "> 9.00"}

Now examine the next entry.
pIC50 for Cn1ncc2ccc(-c3n[nH]c4c3Cc3sc(-c5cccc(CN6CCOCC6)c5)cc3-4)cc21 ? 8.00 to 9.00
